- target.system: human TRPV1 (transient receptor potential vanilloid type 1) (human, UniProt Q8NER1 1-839)
- Sequence (Q8NER1 whole entry): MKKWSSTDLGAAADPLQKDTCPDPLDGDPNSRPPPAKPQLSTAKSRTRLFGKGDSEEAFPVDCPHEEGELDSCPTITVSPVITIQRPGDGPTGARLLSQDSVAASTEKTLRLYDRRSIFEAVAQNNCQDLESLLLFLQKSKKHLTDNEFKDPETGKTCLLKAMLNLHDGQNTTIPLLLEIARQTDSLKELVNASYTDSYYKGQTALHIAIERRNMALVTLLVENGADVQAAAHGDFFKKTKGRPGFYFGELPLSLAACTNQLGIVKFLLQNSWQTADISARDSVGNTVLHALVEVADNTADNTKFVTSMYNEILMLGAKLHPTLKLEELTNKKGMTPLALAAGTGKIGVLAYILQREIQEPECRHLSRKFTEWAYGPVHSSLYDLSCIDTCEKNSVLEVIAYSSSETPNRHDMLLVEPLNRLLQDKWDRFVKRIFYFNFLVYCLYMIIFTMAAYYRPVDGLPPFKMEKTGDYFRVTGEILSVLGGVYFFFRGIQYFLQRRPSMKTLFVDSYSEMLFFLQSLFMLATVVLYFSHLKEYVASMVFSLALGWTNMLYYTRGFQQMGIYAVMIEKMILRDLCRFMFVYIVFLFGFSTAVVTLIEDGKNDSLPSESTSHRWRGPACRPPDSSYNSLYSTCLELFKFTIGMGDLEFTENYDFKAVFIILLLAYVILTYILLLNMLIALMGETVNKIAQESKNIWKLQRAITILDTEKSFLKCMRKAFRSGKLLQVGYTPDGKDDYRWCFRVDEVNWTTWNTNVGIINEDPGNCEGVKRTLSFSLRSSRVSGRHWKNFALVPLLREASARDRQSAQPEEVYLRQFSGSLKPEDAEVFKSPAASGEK
- assay.info: cell-based or functional assay
measured.attribute: IC50 of inhibition of TRPV1-mediated capsaicin-induced Ca2+ uptake (FLIPR)

{"columns": ["binder", "value.observed"],
 "data": [
  ["16F1-1 (antibody, IgG2a, V domains shown) VH: EVQLVESGGGLVQPKGSLKLSCAASGFTFNTYAMHWVRQAPGKGLEWVARIRSKSSNYATYYADSVKDRFTISRDDSQSMVYLQMNNLKTEDTAMYYCVRKGDGYDGWFAYWGQGTLVTVSA VL: DIQMTQSPASLSASVGETVTITCRPSGNIHNYLVWYQQKQGKSPQVLVYNSKTLADGVPSRFSGSGSGTQYSLKINSLQPEDFGTYYCQHFWSTPLTFGAGTKLELK", "~215 nM"]
]}

Now consider a different binder.
query: Please list IC50 of inhibition of TRPV1-mediated capsaicin-induced Ca2+ uptake (FLIPR) recorded for the binder 17E11-1 (antibody, IgG1, V domains shown) VH: EVQLLQSVAELVRPGASVKLSCTASGFNIKNTFIHWLKQRPEQGLEWIGKIDPANGNIRCAPKFQGKATITADTSSNTAYLQLSSLTSGDTAIYYCGRGTMLVGHFYWYFDVWGTGTTVTVSS VL: DIVMSQSPSSLAVSVGEKITMSCKSSQSLLYSSNQKNYLAWYQQKPGQSPKLLIYWASTRESGVPDRFSGSGSGTDFTLTISSVKTEDLAIFYCQQYYYYPPTFGAGTKLELR
result: ~230 nM
